Target: DPP-VIII (Homo sapiens, UniProt Q6V1X1)
Construct: purchased Bioscience 80080
Sequence (Q6V1X1 whole entry): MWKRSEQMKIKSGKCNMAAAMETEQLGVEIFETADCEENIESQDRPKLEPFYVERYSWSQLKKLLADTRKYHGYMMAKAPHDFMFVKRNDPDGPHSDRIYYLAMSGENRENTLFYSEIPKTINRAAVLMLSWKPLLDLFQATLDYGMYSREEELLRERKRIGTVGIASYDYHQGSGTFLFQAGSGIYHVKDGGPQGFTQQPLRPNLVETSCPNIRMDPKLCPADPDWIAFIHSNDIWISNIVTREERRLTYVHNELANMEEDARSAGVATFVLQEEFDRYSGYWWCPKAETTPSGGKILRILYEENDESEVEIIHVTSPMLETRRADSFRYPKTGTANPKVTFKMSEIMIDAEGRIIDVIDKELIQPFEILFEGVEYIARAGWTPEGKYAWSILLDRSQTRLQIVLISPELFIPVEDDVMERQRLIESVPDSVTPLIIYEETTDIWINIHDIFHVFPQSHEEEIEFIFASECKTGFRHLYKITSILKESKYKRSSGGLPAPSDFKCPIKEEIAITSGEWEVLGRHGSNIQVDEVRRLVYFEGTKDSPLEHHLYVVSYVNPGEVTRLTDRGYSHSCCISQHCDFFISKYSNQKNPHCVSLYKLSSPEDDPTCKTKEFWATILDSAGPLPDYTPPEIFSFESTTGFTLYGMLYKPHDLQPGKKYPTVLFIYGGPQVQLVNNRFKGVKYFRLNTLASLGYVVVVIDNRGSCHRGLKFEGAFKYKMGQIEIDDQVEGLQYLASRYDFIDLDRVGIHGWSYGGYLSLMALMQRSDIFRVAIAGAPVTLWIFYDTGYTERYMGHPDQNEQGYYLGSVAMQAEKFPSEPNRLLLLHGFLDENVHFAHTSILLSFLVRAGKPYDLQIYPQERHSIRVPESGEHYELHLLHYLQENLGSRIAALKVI
Assay: Assay for DPP-VIII inhibitory activity (luminescence)
Assay type: biochemical
Details: purified DPP-VIII enzyme
Counter-ions that a name gives are not always drawn.
Consider the following compounds and their measured IC50 readings.
Supply the numeric figure in nM, leaving out any unit text.

In: Quick one: IC50 of CN(C)C(=O)N1C[C@@H]2C[C@](C)(NCC(=O)N3C[C@@H](F)C[C@H]3C#N)C[C@@H]2C1 [Example 13, tartrate] ?
Out: 371

In: Can you handle CN(C)C(=O)N1C[C@@H]2C[C@@](C)(NCC(=O)N3C[C@@H](F)C[C@H]3C#N)C[C@@H]2C1 [Example 18, p-toluenesulfonate] next?
Out: 3320

All figures here come from patent US8415349B2.
